In this section we review reported pIC50 values for a set of compounds.
# Tested on: HT-29 cells
# assay.name: In vitro toxicity test, crystal violet
# Type: cell-based, human
# protocol.conditions: concentration at 50% viability; HT-29, 24 h; mean (SD); n.d. = not detected as it is too high
Answer as the number alone; pIC50 is minus log10 of concentration in mol/L.

[
  {
    "compound.string": "O=C1CCNC(=O)[C@H](Cc2c[nH]cn2)NC(=O)CCNC(=O)[C@H](Cc2c[nH]cn2)N1",
    "test.system": "HT-29 cells",
    "pIC50": 2.24
  },
  {
    "compound.string": "O=C([O-])CN(CCN(CC(=O)[O-])CC(=O)[O-])CC(=O)[O-].[Ca+2].[Na+].[Na+]",
    "test.system": "HT-29 cells",
    "pIC50": 2.41
  }
]

API: the following record is the query input.
Lookup: // fetch HT-29 cells pIC50 for O=C([O-])CN(CCN(CC(=O)[O-])CC(=O)O)CC(=O)O.[Na+].[Na+]
Found: 3.22

###

# Test system: DH5α E. coli
# assay.name: In vivo recovery test: Pb detoxification of poisoned bacteria, colony counting
# Type: cell-based
# protocol.conditions: highest concentration 120 mM (10 equiv.); Pb(NO3)2 12 mM; vs poisoned untreated cells; mean
metric.name: Recovery DH5α (%)
A number alone suffices; assume %.

[
  {
    "molecule": "O=C1CCNC(=O)[C@H](Cc2ccccc2)NC(=O)CCNC(=O)[C@H](CS)N1 [compound 9, Cys-βAla-Phe-βAla]",
    "test.system": "DH5α E. coli",
    "Recovery DH5α (%)": 180
  }
]

Lookup: What Recovery DH5α (%) value was documented for this molecule, O=C1CCNC(=O)[C@H](Cc2c[nH]cn2)NC(=O)CCNC(=O)[C@H](CS)N1 [compound 7, Cys-βAla-His-βAla] ?
Found: 47

Lookup: Next up: O=C([O-])CN(CCN(CC(=O)[O-])CC(=O)[O-])CC(=O)[O-].[Ca+2].[Na+].[Na+] [Na2CaEDTA]
Found: 182

Lookup: Now this one: O=C([O-])CN(CCN(CC(=O)[O-])CC(=O)O)CC(=O)O.[Na+].[Na+] [Na2EDTA]
Found: 107

###

Measured Recovery DH5α (%) accompanies every entry in the list below.
# Tested on: DH5α E. coli
# assay.name: In vivo recovery test: Pb detoxification of poisoned bacteria, colony counting
# Assay type: cell-based
# protocol.conditions: highest concentration 120 mM (10 equiv.); Pb(NO3)2 12 mM; vs poisoned untreated cells; mean
Please reply with the bare figure in % and do not write the unit itself.

Lookup: Query for DH5α E. coli: what Recovery DH5α (%) does the record show for O=C(O)C(S)C(S)C(=O)O (centres unmarked) [DMSA, dimercaptosuccinic acid] ?
Found: 165

Lookup: Param item: N[C@@H](CCC(=O)N[C@@H](CS)C(=O)NCC(=O)O)C(=O)O [GSH, glutathione]
Found: 39

Lookup: What do you have for CSCC[C@@H]1NC(=O)CCNC(=O)[C@H](CCSC)NC(=O)CCNC1=O [compound 3, Met-βAla-Met-βAla] ?
Found: 139

Lookup: And O=C1CCNC(=O)[C@H](Cc2c[nH]cn2)NC(=O)CCNC(=O)[C@H](Cc2c[nH]cn2)N1 [compound 4, His-βAla-His-βAla] ?
Found: 80

Lookup: Now this one: O=C(O)C[C@@H]1NC(=O)CCNC(=O)[C@H](CC(=O)O)NC(=O)CCNC1=O [compound 5, Asp-βAla-Asp-βAla]
Found: 150

###

Each record here notes measured Toxicity Maximal inhibition (%).
# System: HT-29 cells
# assay.name: In vitro toxicity test, crystal violet
# Type: cell-based, human
# protocol.conditions: inhibition at the highest concentration (10 mM); HT-29, 24 h; mean, SD
# Experimental: 96-well plates were prepared such that every well contains 10,000 cells in 100 μL medium, and the cells were allowed to adhere overnight. To all wells but the positive control, 10 μL of each solution of the examined CA (2.4, 6, 12, 24, 48, and 120 mM) were added to reach final concentrations of 0.2, 0.5, 1, 2, 4, and 10 mM. […] 200 μL of MeOH were added to each well, and the plates were gently shaken (60 rpm) for 20 min, after which their absorbance at 560 nm was read with a plate reader. […]
Give a bare numeral; the unit % is implied.

Known results for compounds:
[
  {
    "compound.string": "O=C([O-])CN(CCN(CC(=O)[O-])CC(=O)[O-])CC(=O)[O-].[Ca+2].[Na+].[Na+]",
    "Toxicity Maximal inhibition (%)": 63
  },
  {
    "compound.string": "O=C([O-])CN(CCN(CC(=O)[O-])CC(=O)O)CC(=O)O.[Na+].[Na+]",
    "Toxicity Maximal inhibition (%)": 72
  },
  {
    "compound.string": "O=C(O)C[C@@H]1NC(=O)CCNC(=O)[C@H](CC(=O)O)NC(=O)CCNC1=O",
    "Toxicity Maximal inhibition (%)": 44
  }
]

Attention now shifts to the item below.
Lookup: // lookup Toxicity Maximal inhibition (%) for O=C1CCNC(=O)[C@H](Cc2c[nH]cn2)NC(=O)CCNC(=O)[C@H](Cc2c[nH]cn2)N1
Found: 62
